Values were extracted from patent US4297357A.

- Tested on: Stress Ulcer
- assay.summary: Inhibitory Effect on Stress Ulcer in Rat (Water Immersion Restraint Method)
- Assay type: in vivo
- condition.set: Rattus norvegicus, po, 20 h, 400 mg/kg, water immersion restraint 21° C.
Structures can show the parent of a compound that is named as a salt.
assay.readout: inhibition in vivo at 400 mg/kg (%)
Lab book: enter the figure in %, no units written.

Consider the reported inhibition in vivo at 400 mg/kg for these compounds:
compound | tgt | inhibition in vivo at 400 mg/kg [%]
CCN1CCCC1CNC(=O)c1cc(S(N)(=O)=O)ccc1OC (stereo not shown) [Sulpiride, reference compound] | Stress Ulcer | 11
COc1ccc(CCNC(=O)CNc2ccccc2)cc1OC [Compound 3, hydrochloride] | Stress Ulcer | 25
COc1ccc(CCNC(=O)CNc2cc(Cl)ccc2C(N)=O)cc1OC | Stress Ulcer | 18

We next turn to a different compound, shown below.
[ask] What value of inhibition in vivo at 400 mg/kg on Stress Ulcer does COc1ccc(CCNC(=O)CNc2cccc(C(N)=O)c2)cc1OC.Cl [Compound 2, hydrochloride] have?
[reply] 33

====

- Test system: Stress Ulcer
- assay.summary: Inhibitory Effect on Stress Ulcer in Rat (Water Immersion Restraint Method)
- Assay type: in vivo
- condition.set: Rattus norvegicus, ip, 20 h, intraperitoneal, 100 mg/kg, water immersion restraint 21° C.
assay.readout: inhibition in vivo at 100 mg/kg (%)
Lab book: enter the figure in %, no units written.

compound | units.label | value.measured
COc1ccc(CCNC(=O)CNc2cc(Cl)ccc2C(N)=O)cc1OC [drawing 11] | % | 38
COc1ccc(CCNC(=O)CNc2ccc(Cl)c(C(N)=O)c2)cc1OC | % | 35
CCN1CCCC1CNC(=O)c1cc(S(N)(=O)=O)ccc1OC (stereo not drawn) [Sulpiride, reference compound] | % | 27
COc1ccc(CCNC(=O)CNc2ccccc2)cc1OC [drawing 8] | % | 42
COc1ccc(CCNC(=O)CNc2ccc(Cl)cc2C(N)=O)cc1OC | % | 34

We next turn to a different compound, shown below.
[ask] I would be grateful if you could share the reported inhibition in vivo at 100 mg/kg for COc1ccc(CCNC(=O)CNC(=O)c2ccccc2OC)cc1OC .
[reply] 50

====

- Tested on: Stress Ulcer
- assay.summary: Inhibitory Effect on Stress Ulcer in Rat (Water Immersion Restraint Method)
- Assay type: in vivo
- condition.set: Rattus norvegicus, po, 20 h, 200 mg/kg, water immersion restraint 21° C.
Where a name gives a salt, the structure may show the parent alone.
# Lookup of reported inhibition in vivo at 200 mg/kg keyed by entry
Lab book: enter the figure in %, no units written.

[ask] I would be grateful if you could share the reported inhibition in vivo at 200 mg/kg for COc1ccc(CCNC(=O)CNc2cc(Cl)ccc2C(N)=O)cc1OC .
[reply] 17

[ask] I would be grateful if you could share the reported inhibition in vivo at 200 mg/kg for COc1ccc(CCNC(=O)CNc2ccccc2)cc1OC [Compound 3, hydrochloride] .
[reply] 20

[ask] I would be grateful if you could share the reported inhibition in vivo at 200 mg/kg for COc1ccc(CCNC(=O)CNc2cccc(C(N)=O)c2)cc1OC.Cl [Compound 2, hydrochloride] .
[reply] 21

[ask] I would be grateful if you could share the reported inhibition in vivo at 200 mg/kg for CCN1CCCC1CNC(=O)c1cc(S(N)(=O)=O)ccc1OC (stereo not shown) [Sulpiride, reference compound] .
[reply] 4
